IC50 values for O-acyltransferase (Oryctolagus cuniculus), compiled from several publications.

[
  {
    "chem.smiles": "Cc1cc(C)c(NC(=O)N(Cc2cccc(-c3ccn(C)n3)c2)C2CCCCCC2)c(C)c1",
    "unit.of.measurement": "nM",
    "IC50": 42
  },
  {
    "chem.smiles": "Cc1cc(C)c(NC(=O)C(C)(C)CCCOc2ccc(Cl)cc2)c2c1CC(C)(C)O2",
    "unit.of.measurement": "nM",
    "IC50": 260
  },
  {
    "chem.smiles": "CCCCCCCCCCCCN1NN=C(CNC(=O)Nc2c(OC)cc(OC)cc2OC)N1",
    "unit.of.measurement": "nM",
    "IC50": 150
  },
  {
    "chem.smiles": "Cc1cc(C)c(NC(=O)N(Cc2ccc(-c3cc[nH]n3)cc2)C2CCCCCC2)c(C)c1",
    "unit.of.measurement": "nM",
    "IC50": 52
  },
  {
    "chem.smiles": "CCCCCNC(=O)Nc1c(OCCCN2CCC(c3ccccc3)CC2)cccc1N(C)C",
    "unit.of.measurement": "nM",
    "IC50": 340
  },
  {
    "chem.smiles": "CCCCCCCCCCCCCc1ccc(NC(=O)Nc2c(C(C)C)cccc2C(C)C)cc1",
    "unit.of.measurement": "nM",
    "IC50": 11
  },
  {
    "chem.smiles": "CCc1ccc(NC(=O)Nc2c(C(C)C)cccc2C(C)C)cc1",
    "unit.of.measurement": "nM",
    "IC50": 100
  },
  {
    "chem.smiles": "CC(C)c1ccc(NC(=O)Nc2c(C(C)C)cccc2C(C)C)cc1",
    "unit.of.measurement": "nM",
    "IC50": 66
  },
  {
    "chem.smiles": "Cc1cc(C)c(NC(=O)N(Cc2ccc(-n3cncn3)cc2)C2CCCCCC2)c(C)c1",
    "unit.of.measurement": "nM",
    "IC50": 26
  },
  {
    "chem.smiles": "Cc1cc(C)c(NC(=O)C(C)(C)CCCCCCOc2ccc(Cl)cc2)c2c1CC(C)(C)O2",
    "unit.of.measurement": "nM",
    "IC50": 76
  },
  {
    "chem.smiles": "Cc1cc(C)c(NC(=O)N(Cc2ccc(-c3cccnc3)cc2)C2CCCCCC2)c(C)c1",
    "unit.of.measurement": "nM",
    "IC50": 130
  },
  {
    "chem.smiles": "CCCCCCCCc1ccc(NC(=O)Nc2c(C(C)C)cccc2C(C)C)cc1",
    "unit.of.measurement": "nM",
    "IC50": 11
  },
  {
    "chem.smiles": "Cc1cc(C)c(NC(=O)N(Cc2cccc(-n3cccc3)c2)C2CCCCCC2)c(C)c1",
    "unit.of.measurement": "nM",
    "IC50": 20
  },
  {
    "chem.smiles": "CCCCCN(C)C(=O)Nc1c(OCCCn2cnc(-c3ccccc3)c2)cccc1N(C)C",
    "unit.of.measurement": "nM",
    "IC50": 550
  },
  {
    "chem.smiles": "Cc1cc(C)c(NC(=O)N(Cc2ccc(-n3cccn3)cc2)C2CCCCCC2)c(C)c1",
    "unit.of.measurement": "nM",
    "IC50": 70
  },
  {
    "chem.smiles": "CCCCCNC(=O)Nc1c(N(C)C)ccc(C)c1OCCCn1cnc(-c2ccccc2)c1",
    "unit.of.measurement": "nM",
    "IC50": 410
  },
  {
    "chem.smiles": "CCCCCCCCCCCCn1ncnc1NC(=O)Nc1c(C(C)C)cccc1C(C)C",
    "unit.of.measurement": "nM",
    "IC50": 250
  },
  {
    "chem.smiles": "CSc1cc(C)nc(SC)c1NC(=O)N(Cc1ccccc1)Cc1ccc(-c2cc[nH]n2)cc1",
    "unit.of.measurement": "nM",
    "IC50": 55
  },
  {
    "chem.smiles": "CCNC(=O)Nc1c(OCCCn2cnc(-c3ccccc3)c2)cccc1N(C)C",
    "unit.of.measurement": "nM",
    "IC50": 870
  },
  {
    "chem.smiles": "CCCCCCCCCCCN1NN=C(NC(=O)Nc2c(C(C)C)cccc2C(C)C)N1",
    "unit.of.measurement": "nM",
    "IC50": 9
  },
  {
    "chem.smiles": "CCCCCCCCCCCCCCN1NN=C(NC(=O)Nc2c(C(C)C)cccc2C(C)C)N1",
    "unit.of.measurement": "nM",
    "IC50": 12
  },
  {
    "chem.smiles": "COc1ccc(CN(Cc2cccc(-c3cc[nH]n3)c2)C(=O)Nc2c(SC)cc(C)nc2SC)cc1",
    "unit.of.measurement": "nM",
    "IC50": 200
  }
]
